Entry source: paper PMC7819943

# TEST TARGET: OsSMF1 (Oryza sativa, UniProt Q6ZLB0 1-436)
# Sequence: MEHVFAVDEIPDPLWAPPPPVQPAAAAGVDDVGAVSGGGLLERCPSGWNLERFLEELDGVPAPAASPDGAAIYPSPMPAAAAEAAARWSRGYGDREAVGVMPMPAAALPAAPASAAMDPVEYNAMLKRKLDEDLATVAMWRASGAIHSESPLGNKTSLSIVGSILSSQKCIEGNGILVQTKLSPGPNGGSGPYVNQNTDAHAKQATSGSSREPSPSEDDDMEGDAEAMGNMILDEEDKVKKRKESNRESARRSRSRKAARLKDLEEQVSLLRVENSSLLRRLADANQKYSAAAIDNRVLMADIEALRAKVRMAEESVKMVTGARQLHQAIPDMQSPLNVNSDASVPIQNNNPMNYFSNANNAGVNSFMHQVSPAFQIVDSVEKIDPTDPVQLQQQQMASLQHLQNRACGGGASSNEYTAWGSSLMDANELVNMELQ
# TEST DESCRIPTION: protein-binding microarray (RPBM); PBS, 2% BSA, 51.3 ng/ul salmon testes DNA, 50 uM zinc acetate, 200 nM TF, 25 C, 1 h; high values mean tight binding
# REPORTED CONDITIONS: protein: recombinant; tags: N-terminal polyhistidine and DsRed monomer fusion (pET32a); chain copies: 2; label: CyDye5-dUTP incorporated in the synthesized complementary strand; 3' TTTTT single-stranded linker to array surface; dsDNA, one strand shown
Whole data set: some 39,000 sequences, median “fluorescence intensity (a.u.)” near 4,300, cut for the highest 2% near 39,000. The list comes from a sample in which the highest values are over-represented; it also holds close analogues and randomly drawn sequences.
READOUT NAME: binding signal

Consider the reported binding signal for these sequences:
{"CHAIN": "ACCCAAAGCCACCCGCAACAACCGACGACGACGACGACCGCGGAGTCACCTAGTGCAG", "VALUE": "24100 fluorescence intensity (a.u.)"}
{"CHAIN": "ACCATGGTCTAACCTACGTGGCATGCCACGTGTGCGTGTGCGGAGTCACCTAGTGCAG", "VALUE": "56000 fluorescence intensity (a.u.)"}

We now examine a further sequence.
binding signal lookup needed for `CATGGTGCGGGCCAGCTCAGCTGTGCACGTGGCATGCCACCGGAGTCACCTAGTGCAG` , thanks.
17200 fluorescence intensity (a.u.)
